Target: Bcl-xL-Beclin 1 complex (Homo sapiens)
Construct: made in house
Assay: Concentration response FP reconfirmation of HTS hits
Format: binding
Settings: 40 μM; hits of first screen; read-out: Dose-response (% Inhibition) 40 μM
Below is a list of entries, each paired with its recorded inhibition at 40 µM value.
Number in %, nothing else.

CC(C)=CCCC1(C)C=Cc2c(O)c3c(c(CC=C(C)C)c2O1)OC12C(=CCCC1C(C)(C)O[C@@]2(C/C=C(\C)C(=O)O)C(=O)O)C3=O (stereo partly drawn) [Compound A02, GARCINOLIC ACID]    7.5
OCCN(CCO)c1nc(N2CCCCC2)c2nc(N(CCO)CCO)nc(N3CCCCC3)c2n1 [Compound A22, DIPYRIDAMOLE]    46.7

q: What value of inhibition at 40 µM has been recorded for this entry: CN(C)c1ccc(C(=C2C=CC(=[N+](C)C)C=C2)c2ccc(N(C)C)cc2)cc1 [Compound A08, GENTIAN VIOLET]
a: 6.6

====

Target: Bcl-xL-Beclin 1 complex (Homo sapiens, UniProt Q07817)
Construct: made in house
Sequence (Q07817 whole entry, one chain of several): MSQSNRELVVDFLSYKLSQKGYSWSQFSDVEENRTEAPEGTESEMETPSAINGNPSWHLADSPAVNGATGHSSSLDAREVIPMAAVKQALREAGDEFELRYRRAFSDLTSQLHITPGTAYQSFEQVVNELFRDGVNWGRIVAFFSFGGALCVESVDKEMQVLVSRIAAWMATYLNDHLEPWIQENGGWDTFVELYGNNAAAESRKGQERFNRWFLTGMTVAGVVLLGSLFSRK
Assay: FP-based high-throughput screening, primary screen
Type: binding
Details: first screen; 40 μM compound, 2.5 μM Bcl-xL, 400 nM 20-mer
Structures can show the parent of a compound that is named as a salt.
Friendly reminder: Primary Screen mP below 100 mP is fulfilled, at or above is not fulfilled.

q: Primary Screen mP under 100 mP? Item: C[n+]1cc2c3c(ccc2c2ccc4cc5c(cc4c21)OCO5)OCO3 [Compound A05, SANGUINARINE SULFATE]
a: not fulfilled

q: Please determine if CC[N+](C)(CC)CCC[n+]1c(-c2ccccc2)c2cc(N)ccc2c2ccc(N)cc21.[I-].[I-] [Compound A40, PROPIDIUM IODIDE] is below 100 mP in terms of Primary Screen mP.
a: not fulfilled

q: I'd appreciate it if you could check whether Nc1ccc2cc3ccc(N)cc3nc2c1 [Compound A13, PROFLAVINE HEMISULFATE] has Primary Screen mP smaller than 100 mP.
a: fulfilled

====

Biological target: Bcl-xL-Beclin 1 complex (Homo sapiens)
Construct: made in house
Experiment: Concentration response FP reconfirmation of HTS hits
Assay type: binding
Details: 20 μM; hits of first screen; read-out: Dose-response (% Inhibition) 20 μM
Structures can show the parent of a compound that is named as a salt.
Use Met when the recorded inhibition at 20 µM is no lower than 40%; use Not met when it is lower.

Solved cases below.
CCCc1nc2c(C)cc(-c3nc4ccccc4n3C)cc2n1Cc1ccc(-c2ccccc2C(=O)O)cc1 [Compound A16]    Not met
CCN(CC)CCCC(C)Nc1c2ccc(Cl)cc2nc2ccc(OC)cc12 (stereo not drawn) [Compound A21, QUINACRINE HYDROCHLORIDE]    Not met
CC[C@@]1(O)C(=O)OCc2c1cc1n(c2=O)Cc2cc3c(CN(C)C)c(O)ccc3nc2-1 [Compound A23, TOPOTECAN HYDROCHLORIDE]    Met
COc1cccc2c1C(=O)c1c(O)c3c(c(O)c1C2=O)C[C@@](O)(C(=O)CO)C[C@@H]3O[C@H]1C[C@H](N)[C@H](O)[C@H](C)O1 [Compound A25, DOXORUBICIN HYDROCHLORIDE]    Not met
CCCCC(CC)CCC(CC(C)C)OS(=O)(=O)O (stereo not drawn) [Compound A06, SODIUM TETRADECYL SULFATE]    Not met

q: hey, is inhibition at 20 µM for this one >= 40%? O=C1c2c(O)ccc(O)c2C(=O)c2c(NCCNCCO)ccc(NCCNCCO)c21 [Compound A11, MITOXANTRONE HYDROCHLORIDE]
a: Not met

====

Target: Bcl-xL-Beclin 1 complex (Homo sapiens)
Construct: made in house
Assay: Concentration response FP reconfirmation of HTS hits
Assay type: binding
Details: read-out: Dose-response (% Inhibition) 80 μM
Structures can show the parent of a compound that is named as a salt.
Some molecules, each annotated with its measured inhibition at 80 µM.
Returns: string containing the numeric result and its unit.

CN1C[C@H](C(=O)N[C@]2(C)O[C@@]3(O)[C@@H]4CCCN4C(=O)[C@H](Cc4ccccc4)N3C2=O)C=C2c3cccc4[nH]cc(c34)C[C@H]21 [Compound A18, ERGOTAMINE TARTRATE]    15.6%
CCCCCCCCCc1ccc(OCCOCCOCCOCCOCCOCCOCCOCCOCCO)cc1    12.9%
Cc1cc2c(C(C)C)c(O)c(O)c(C=O)c2c(O)c1-c1c(C)cc2c(C(C)C)c(O)c(O)c(C=O)c2c1O    14.7%
CC[n+]1c(-c2ccccc2)c2cc(N)ccc2c2ccc(N)cc21 [Compound A12, HOMIDIUM BROMIDE]    26.1%
O=C(Nc1ccccc1)c1ccccc1O [Compound A39, SALICYLANILIDE]    102%

q: Quick check: inhibition at 80 µM of `COc1cccc2c1C(=O)c1c(O)c3c(c(O)c1C2=O)C[C@@](O)(C(C)=O)C[C@@H]3O[C@H]1C[C@H](N)[C@H](O)[C@H](C)O1` ?
a: 51.9%

q: // lookup inhibition at 80 µM for C[n+]1cc2c3c(ccc2c2ccc4cc5c(cc4c21)OCO5)OCO3 [Compound A05, SANGUINARINE SULFATE]
a: 20.6%

q: // inhibition at 80 µM lookup, key: `O=C1C(Cl)=C(Cl)C(=O)C(Cl)=C1Cl`
a: 28.5%

====

Target: Bcl-xL-Beclin 1 complex (Homo sapiens, UniProt Q07817)
Construct: made in house
Test: Concentration response FP reconfirmation of HTS hits
Format: binding
Details: 5 μM; hits of first screen; read-out: Dose-response (% Inhibition) 5 μM
Structures can show the parent of a compound that is named as a salt.
recorded endpoint: inhibition at 5 µM (%)
Form entry: value (%) — number only.

As a guide, the following entries are already answered.
COC(=O)CC[C@@H](C)[C@H]1CC[C@H]2[C@@H]3[C@H](O)C[C@@H]4C[C@H](O)CC[C@]4(C)[C@H]3C[C@H](O)[C@]12C [Compound A09, CHOLIC ACID, METHYL ESTER]    1.6
CN(C)c1ccc(C(=C2C=CC(=[N+](C)C)C=C2)c2ccc(N(C)C)cc2)cc1 [Compound A08, GENTIAN VIOLET]    1.9
COc1cccc2c1C(=O)c1c(O)c3c(c(O)c1C2=O)C[C@@](O)(C(=O)CO)C[C@@H]3O[C@H]1C[C@H](N)[C@@H](O)[C@H](C)O1 [Compound A24, EPIRUBICIN HYDROCHLORIDE]    6.8
Nc1ccc2cc3ccc(N)cc3nc2c1 [Compound A13, PROFLAVINE HEMISULFATE]    55.9
CC[C@@]1(O)C(=O)OCc2c1cc1n(c2=O)Cc2cc3c(CN(C)C)c(O)ccc3nc2-1 [Compound A23, TOPOTECAN HYDROCHLORIDE]    39.8

Consider the record given below.
q: GET /values?readout=inhibition at 5 µM&item= Cc1cc2nc3c(=O)[nH]c(=O)nc-3n(C[C@H](O)[C@H](O)[C@H](O)CO)c2cc1C [Compound A31, RIBOFLAVIN]
a: 67.6

====

Target: Bcl-xL-Beclin 1 complex (Homo sapiens, UniProt Q07817)
Construct: made in house
Assay: Concentration response FP reconfirmation of HTS hits
Format: binding
Settings: 5 μM; hits of first screen; read-out: Dose-response (% Inhibition) 5 μM
Protocol: Then the plates were read by Envision (Perkin Elmer, Waltham, MA). […] The hits were selected from library stocks and reconfirmed in a concentration response FP assay (6 doses ranging from 5 μM to 160 μM or 8 doses ranging from 0.5 μM to 60 μM).
Counter-ions that a name gives are not always drawn.
recorded endpoint: inhibition at 5 µM (%)
Your answer is read as %, so omit the unit and give the number.

q: Could you share which inhibition at 5 µM value was measured for CCN(CC)CCCC(C)Nc1c2ccc(Cl)cc2nc2ccc(OC)cc12 (stereo not shown) [Compound A21, QUINACRINE HYDROCHLORIDE] ?
a: 14.5

q: Which inhibition at 5 µM reading was recorded for the molecule O=C(O)C1=CC(=C(c2ccc(O)c(C(=O)O)c2)c2ccc(O)c(C(=O)O)c2)C=CC1=O [Compound A14, AURIN TRICARBOXYLIC ACID] ?
a: 0.7

q: Which inhibition at 5 µM value belongs to O=C(O)c1cc(O)c2c(c1)[C@H]([C@H]1c3cc(C(=O)O)cc(O)c3C(=O)c3c(O[C@@H]4O[C@H](CO)[C@@H](O)[C@H](O)[C@H]4O)cccc31)c1cccc(O[C@@H]3O[C@H](CO)[C@@H](O)[C@H](O)[C@H]3O)c1C2=O [Compound A34, SENNOSIDE A] ?
a: 0.5

q: Query: inhibition at 5 µM; subject: O=C1C=C2CC3(O)COc4cc(O)ccc4C3=C2C=C1O (stereo not shown) [Compound A01, BRAZILEIN]
a: 8
